Recorded Blackgrass plant response rating values for a group of compounds are listed next.
- Test system: blackgrass
- protocol_summary: Test B pre/postemergence blackgrass
- Type: in vivo, Alopecurus myosuroides
- condition_context: Postemergence, Rate 250 g/ha; scale of 0 to 10, 0 is no effect, 10 is complete control
Reply with the value as a number alone.

Reference set, count: 5
[
  {
    "compound": "CC(C)N(C(=O)n1oc(=O)n(CCCC(F)(F)F)c1=O)c1ccccc1",
    "subject_of_test": "blackgrass",
    "val": 6
  },
  {
    "compound": "C=C(Cc1ccccc1)Cn1c(=O)on(C(=O)N(c2ccccc2)C(C)C)c1=O",
    "subject_of_test": "blackgrass",
    "val": 0
  },
  {
    "compound": "CCC(C)n1c(=O)on(C(=O)N(c2ccccc2)C(C)C)c1=O (stereo not shown)",
    "subject_of_test": "blackgrass",
    "val": 9
  },
  {
    "compound": "CC(C)N(C(=O)n1oc(=O)n(CC(=O)N(C)C)c1=O)c1ccccc1",
    "subject_of_test": "blackgrass",
    "val": 6
  },
  {
    "compound": "CC(C)N(C(=O)n1oc(=O)n(CCC2=NOCCC2)c1=O)c1ccc(F)cc1",
    "subject_of_test": "blackgrass",
    "val": 9
  }
]

I'd like to know its Blackgrass plant response rating. The compound in question is C#CC(C)n1c(=O)on(C(=O)N(c2ccc(Cl)cc2)C(C)C)c1=O (racemic)
6

// repeat for C=C(C)Cn1c(=O)on(C(=O)N(c2ccccc2)C(C)C)c1=O and report
6

* * *

Recorded Wild oats plant response rating values for a group of compounds are listed next.
- Test system: wild oat
- protocol_summary: Test B pre/postemergence wild oat
- Format: in vivo, Avena fatua
- condition_context: Rate 500 g/ha, Postemergence; scale 0 to 10, 0 is no effect, 10 is complete control

Reference set, count: 2
[
  {
    "compound": "CC[C@H](C)n1c(=O)on(C(=O)N(c2ccc(Cl)cc2)C(C)C)c1=O",
    "subject_of_test": "wild oat",
    "Wild oats plant response rating": 7
  },
  {
    "compound": "Cc1nc(C(C)n2c(=O)on(C(=O)N(c3ccc(F)cc3)C(C)C)c2=O)sc1C (centres unmarked)",
    "subject_of_test": "wild oat",
    "Wild oats plant response rating": 0
  }
]

I'd like to know its Wild oats plant response rating. The compound in question is CC(=O)OCC(CCl)n1c(=O)on(C(=O)N(c2ccc(F)cc2F)C(C)C)c1=O (racemic)
0

// repeat for C#CCn1c(=O)on(C(=O)N(c2ccccc2)C(C)C)c1=O and report
0

// repeat for CC(C)N(C(=O)n1oc(=O)n(CC2CCCCO2)c1=O)c1ccc(Cl)cc1 (centres unmarked) and report
0

* * *

Recorded Blackgrass plant response rating values for a group of compounds are listed next.
- System: blackgrass
- protocol_summary: Test B pre/postemergence blackgrass
- Type: in vivo, Alopecurus myosuroides
- condition_context: Rate 500 g/ha, Postemergence; scale 0 to 10, 0 is no effect, 10 is complete control
Reply with the value as a number alone.

Reference set, count: 4
[
  {
    "compound": "C#CC(C)n1c(=O)on(C(=O)N(c2ccc(F)cc2F)C(C)C)c1=O (racemic) [Compound 657]",
    "Blackgrass plant response rating": 8
  },
  {
    "compound": "C=C(Cc1ccccc1)Cn1c(=O)on(C(=O)N(c2ccccc2)C(C)C)c1=O [Compound 650]",
    "Blackgrass plant response rating": 3
  },
  {
    "compound": "C#CC=CC(C)(C)n1c(=O)on(C(=O)N(c2ccccc2)C(C)C)c1=O [Compound 655]",
    "Blackgrass plant response rating": 3
  },
  {
    "compound": "C#CC(C)n1c(=O)on(C(=O)N(c2ccc(Cl)cc2)C(C)C)c1=O (racemic) [Compound 658]",
    "Blackgrass plant response rating": 7
  }
]

Consider the additional compound presented here.
I'd like to know its Blackgrass plant response rating. The compound in question is CC(C)N(C(=O)n1oc(=O)n(CC(F)F)c1=O)c1ccc(F)cc1 [Compound 710]
6
